test: Bidirectional transport (A-B and B-A) across Caco-2 cell monolayers
Assay type: in vitro ADME
particulars: human, Caco-2; A-B direction, concentrations of 5–40 μM, HBSS pH 7.4; read-out: absorptive permeability (PAB)
endpoint name: Papp A→B at 5 h

Q: Answer with the recorded Papp A→B at 5 h of COc1ccc(-c2oc3c(CC=C(C)C)c(OC4O[C@H](CO)[C@@H](O)[C@H](O)[C@H]4O)cc(O)c3c(=O)c2OC2O[C@@H](C)[C@H](O)[C@@H](O)[C@H]2O[C@@H]2O[C@H](CO)[C@@H](O)[C@H](O)[C@H]2O)cc1 (stereo partly drawn) [epimedin A] only.
A: 0.42 to 0.72 ×10⁻⁶ cm/s

Q: Provide Papp A→B at 5 h value for the following compound: COc1ccc(-c2oc3c(CC=C(C)C)c(O[C@@H]4O[C@H](CO)[C@@H](O)[C@H](O)[C@H]4O)cc(O)c3c(=O)c2O[C@@H]2O[C@@H](C)[C@H](O)[C@@H](O)[C@H]2O[C@@H]2OC[C@@H](O)[C@H](O)[C@H]2O)cc1 [epimedin B]
A: 0.39 to 0.73 ×10⁻⁶ cm/s

Q: Tell us which Papp A→B at 5 h value is on record for COc1ccc(-c2oc3c(CC=C(C)C)c(O[C@@H]4O[C@H](CO)[C@@H](O)[C@H](O)[C@H]4O)cc(O)c3c(=O)c2O[C@@H]2O[C@@H](C)[C@H](O)[C@@H](O)[C@H]2O[C@@H]2O[C@@H](C)[C@H](O)[C@@H](O)[C@H]2O)cc1 [epimedin C]
A: 0.42 to 0.72 ×10⁻⁶ cm/s

====

test: Bidirectional transport (A-B and B-A) across Caco-2 cell monolayers
Type: in vitro ADME
particulars: human, Caco-2, pH 7.4; concentrations of 5–40 μM; read-out: efflux ratio (PBA/PAB)
endpoint name: efflux ratio at 5 h

Field: example entries. Status: answers known.
>>> result_value("COc1ccc(-c2oc3c(CC=C(C)C)c(O[C@@H]4O[C@H](CO)[C@@H](O)[C@H](O)[C@H]4O)cc(O)c3c(=O)c2O[C@@H]2O[C@@H](C)[C@H](O)[C@@H](O)[C@H]2O[C@@H]2O[C@@H](C)[C@H](O)[C@@H](O)[C@H]2O)cc1 [epimedin C]")
"> 2"
>>> result_value("COc1ccc(-c2oc3c(CC=C(C)C)c(OC4O[C@H](CO)[C@@H](O)[C@H](O)[C@H]4O)cc(O)c3c(=O)c2OC2O[C@@H](C)[C@H](O)[C@@H](O)[C@H]2O[C@@H]2O[C@H](CO)[C@@H](O)[C@H](O)[C@H]2O)cc1 (stereo partly drawn) [epimedin A]")
"> 2"

Q: Let me know recorded efflux ratio at 5 h for COc1ccc(-c2oc3c(CC=C(C)C)c(O[C@@H]4O[C@H](CO)[C@@H](O)[C@H](O)[C@H]4O)cc(O)c3c(=O)c2O[C@@H]2O[C@@H](C)[C@H](O)[C@@H](O)[C@H]2O[C@@H]2OC[C@@H](O)[C@H](O)[C@H]2O)cc1 [epimedin B] , thanks.
A: > 2
